For each of the compounds below, state its viability.
Assay: growth inhibitors of H69AR lung tumor, primary screen, human, duplicate replicates (AID 580);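 also: 100% = mean luminescence of untreated wells and 0% = no signal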
Settings: H69AR lung tumor cells viability, ATP luminescence, 72 h; at 10 µM; hits give low values
Answers are plain numbers, in %.

Study these solved cases before continuing.
[[record]]
compound = "O=c1oc2ccccc2c2nccnc12"
result_unit = "%"
assay_result = 96.5

[[record]]
compound = "CC(=O)Nc1c(Cl)n(C(C)=O)c2ccccc12"
result_unit = "%"
assay_result = 84

[[record]]
compound = "Cc1nc(C)c(C(=O)Nc2ccc(C)c(F)c2)o1"
result_unit = "%"
assay_result = 94.8

[[record]]
compound = "CCOC(=O)Cn1c(N2CCOCC2)nc2c1c(=O)[nH]c(=O)n2C"
result_unit = "%"
assay_result = 88.1

[[record]]
compound = "N#Cc1c(N)c(C(=O)c2ccccc2)n2c1CCCC2"
result_unit = "%"
assay_result = 93.1


Working through the 5 compounds below one at a time, give viability for each.
1. CC(C)(Oc1ccc(Cl)cc1)C(=O)NC1CCSC1=O (stereo not drawn)
2. c1c2c(cc3sc(N4CCCCC4)nc13)OCCO2
3. CC(=Nc1ccc(C)c(C)c1)C1=C(O)CCC1=O
4. CCOC(=O)Cn1c(=N)n(CCOc2cccc(C)c2)c2ccccc21
5. CCC(NC(=O)Nc1cc(OC)c(OC)c(OC)c1)(C(F)(F)F)C(F)(F)F

1: 114; 2: 75.4; 3: 94.7; 4: 85.9; 5: 93

Parameter requested: viability. Apply to each item below.
1. O=C1NC(c2ccco2)Nc2ccccc21 (stereo not drawn)
2. CC(C)CNC(=O)c1c(N)n(/N=C/c2ccccn2)c2nc3ccccc3nc12
3. CC(C)(C)C(=O)Oc1cc(N)n(S(=O)(=O)c2ccccc2)n1
4. O=C(O)C1CC=CCC1C(=O)NCc1ccccc1 (stereo not drawn)
5. O=C(OCC(=O)N1CCc2ccccc21)C1=COCCO1
6. O=C(Nc1cc(Cl)ccc1Cl)c1noc2c1CCCC2
7. COCCOC(=O)c1[nH]c2c(c1C)C(=O)CC(c1ccc(N(C)C)cc1)C2 (stereo not drawn)
8. Cc1cc(C)c(C#N)c(SCc2[nH]nc3c2C(c2ccccc2)C(C#N)=C(N)O3)n1 (stereo not drawn)

1. 97.8
2. 83.9
3. 87.1
4. 92.2
5. 86.1
6. 83.5
7. 83.5
8. 99.7

Count: 8. Required value per item: viability.
1. CCOC(=O)C1CCN(C(=O)CSc2n[nH]c(=O)[nH]c2=O)CC1
2. N#CCCn1ccc(NC(=O)c2ccc(Cl)cc2)n1
3. N=c1c(C(=O)NCc2ccc3c(c2)OCO3)cc2c(=O)n3ccccc3nc2n1Cc1cccnc1
4. COc1cccc(-n2c(C)nc3c(cnn3-c3ccc(C)cc3)c2=O)c1
5. COC(=O)CCCCCNc1ccc(C(=O)OC)cc1N
6. O=C(NCc1cccnc1)c1ccccn1
7. O=C(CN1C(=O)CSC1=O)Nc1ccc(N2CCOCC2)cc1
8. COCCCNS(=O)(=O)c1ccc2c(c1)CCN2C(C)=O

1: 102; 2: 97; 3: 78.8; 4: 90.4; 5: 91.5; 6: 110; 7: 101; 8: 87.1

List the reported viability of each compound below.
1. CCOC(=O)N1CCN(c2cc(=O)n(-c3ccc(OCC)cc3)c(=O)[nH]2)CC1
2. COC(=O)c1cc2oc(C)cc2n1CC(=O)N(C)c1ccccc1
3. CCOc1ccccc1Nc1ncnc2ccccc12
4. Nc1c(Sc2ccccc2)c(=O)[nH]c(=O)n1Cc1ccccc1
5. CCOc1ccc(NC(=O)c2ccccc2O)cc1
6. Cc1cccc(-c2c3c(=O)n(C)c(=O)n(C)c3cn2-c2ccc(O)cc2)c1

1: 97.5; 2: 95.4; 3: 82; 4: 102; 5: 101; 6: 86.6

# credit: PubChem BioAssay
